System: MS2 coat protein
Test: apparent KD of MS2 coat protein; higher = weaker reporter binding
Conditions: Eterna round: R107; input ligand: arginine 13.2 mM
The following ranges of apparent KD of MS2 coat protein define the classes used here: range A (below 20 nM), range B (20 nM to below 40 nM), range C (40 nM or more)

# count of solved cases: 10
# seq-string, category-label
rows = [
    ("UGGUACAUGGCGGCCGCCACUUCACGUAAAAUAAAAGCGUGAGGAUCACCCAUGCAAUAAGUUGGGAGGACCGGGUCAUGUACCU", "range C"),
    ("AUAAUAAAGACGGCCGCCACUAUAAACAUGAGGAACAUGAGGAUCACCCAUGUAUGAGGAUCACCUAGGACCGGGUCAAAUAUUA [AstrosExyTryB#3]", "range B"),
    ("AAUGUAUGGCACAUGAGGAUCACCCAUGUGCGAGGACCGGUACGGCCGCCACUCGGUCCUGGGAUCUUAUUACUAUACAUUAAUG [XTryp A #17]", "range A"),
    ("AGAAUGUAAUAUGGCAAAGUUAUAACCGAAGGAGCGCCGAAUAAGGCAGGUAGGUCGCGGAAACAUGAGGAUCACCCAUGUCCAU [Arginine A Same State; Euphoria Solution 3]", "range A"),
    ("AAGUAAACAUGAGCAAAGCUCAUGUGCGAAGGAGCGGCGGAAACGCCAGGUAGGUCGCGCACAUGAGCAUCAGCCAUGUGUGUCA [Omei Arginine B SS A v1]", "range A"),
    ("AGAUGAGUCACGGCCGCCACUCUUAUCAGGAUCACCCAUGGUUGACAUGAGGAUCACCCAUGUAUGAGGACCGGGUGAUGAGCAU [XTryp B #1]", "range A"),
    ("CCUGCUACGGGAAACCGUAGCAGGAAUGAUACCAGUAGGAAAGACUACCCUUGGCAGCAUGGGAAACAUGAGGAUCACCCAUGUU [SSThA NP+V+V2 #7 Same Structure]", "range B"),
    ("UGAUCCUAGACUGAUACCAGUCAUGAGUACAUGAGGAUCACCCAUGUCCAGGGACUCAAUGACCCUUGGCAGCAGAACCUAGUUC [Theo B SS t7]", "range C"),
    ("UGUUUGGUGCGCGAGUGUUGGAUAAUUGAUACCAGUGUAGAUGUGCGCCCUUGGCAGCGAAUCCGAACAUGAGGAUCACCCAUGU [5.Z]", "range C"),
    ("AAUCUGAUUGCGGCCGCCACUAAUUUUCCAUGAGUAUUGCAAUUACAUGAGGAUCACCCAUGUCAUAGGACCGGGCAUGACAUCU [theeternabot_sameState_MS2_Trp_B_45]", "range C"),
]

Prompt: Class (by measured apparent KD of MS2 coat protein) for GCACCAGGUACGGAUACCAGACAUUGCCGUUAGGGUGAACAUGAGGAUCACCCAUGUUUUGUCCCUUGGCAGCCGUACCUGGUGC [ETB NP+V+V2 #7 Same Structure]
Response: range A

Prompt: Ok, now GCCUCCAGCCGAAGGAGCGCUAGAAGGUGACAUGAGGAUCACCCAUGUGUGUGAUGUGGCUAGCAGGUAGGUCGCGGAGGAGGCA [Exclusion - Arginine B (Freestyle 22)]
Response: range C
